Item-by-item account of Kd
Molecular target: T1, cyno TREM-1-His protein (cynomolgus monkey, UniProt A0A2K5VHG8 21-204)
T1 construct: extracellular domain; Soluble analyte of the Octet assay; not shown: His tag
T1 sequence: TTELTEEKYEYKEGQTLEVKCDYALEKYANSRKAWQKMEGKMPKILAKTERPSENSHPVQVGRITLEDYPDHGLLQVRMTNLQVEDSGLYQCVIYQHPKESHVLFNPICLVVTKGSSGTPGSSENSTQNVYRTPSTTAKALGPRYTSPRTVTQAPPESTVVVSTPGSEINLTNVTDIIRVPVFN
Test: BLI (Octet HTX), antibody captured on anti-human Fc sensor, cyno TREM-1-His as analyte, 1:1 model

Solved cases below.
[
  {
    "BINDER": "63F8 (antibody, V domains shown) VH: QVQLVQSGAEVKKPGASVKVSCKASGYTFTSYDINWVRQATGQGLEWMGRMNPKSGNAGYVQNFRGRVTMTRNTSISTAYMELSSLRSEDTAVYYCARGGRTSIWSFVFDYWGQGTLVTVSS VL: DIQMTQSPSSLSASVGDRVTITCQASQDISKHLNWYQQKPGKAPKLLIYDTSNLETGVPSRFSGSGSGTDFTFTISSLQPEDIATYNCQQYDKLPLTFGGGTKVEIK",
    "OBSERVED MEASUREMENT": "0.856 nM"
  },
  {
    "BINDER": "57F5 (antibody, V domains shown) VH: EVQLLESGGGLVQPGGSLRLSCAASGFTFSSYAMTWVRQAPGRGLQWVSTISGSGSNTYYADSVKGRFTISRDNSKNTLYLQMSSLRAEDTAVYYCAKEGGSNRYFHHWGQGTLVTISS VL: DIQMTQSPSSLSASVGDRVTITCRASQSISSNLNWYQQKPGKAPKLLISAASNLQSGVPSRFSGSESGTDFTLTISSLQSEDFATYYCQQSDSLPLTFGGGTKVEIN",
    "OBSERVED MEASUREMENT": "< 0.29 nM"
  }
]

Turning now to a further record.
For 61B12 (antibody, V domains shown) VH: QVQLVQSGAEVTKPGASVKVSCKASGYTFTRYDINWVRQATGQGLEWMGWMNPNSGNSGSVQKFRGRVTMTRNTSITTVYMELSSLRSDDTAVYYCARGGISSSWHWAFDIWGQGTMVTVSS VL: DIQMTQSPSSLSASVGDRVTITCQASQDINNHLNWYQQKPGKAPKLLIYGAYTLETGVPSRFSGSGSGTDFTFTISSLQPEDIATYYCQQYDKLPLTFGGGTKVEIK the binder record lists Kd as 1.27 nM
